- System: human embryonic kidney 293T (HEK293T) cells
- TEST: MTT cytotoxicity assay, HEK293T normal cells
- Assay type: cell-based
- PROTOCOL_CONDITIONS: 72 h, normal cell line
QUANTITY: IC50
Field note: include the unit after the figure.

// known answers, use as guide
CC(C)(C)c1ccc(/C=C/c2nc(-c3ccc(Cl)cc3)cs2)cc1 [Compound 23]
18.7 µM
CC(C)(C)c1ccc(/C=C/c2nc(-c3ccc(F)cc3)cs2)cc1 [Compound 11]
12 µM

Proceed to the following item.
Exam item: Provide IC50 value for the following compound: Cc1cccc(/C=C/c2nc(-c3ccc(F)cc3)cs2)c1 [Compound 8]
Marked response: 10.2 µM

* * *

// reported IC50 for each item listed
- System: human colon cancer (HCT116) cells
- TEST: MTT cytotoxicity assay, HCT116
- Format: cell-based
- PROTOCOL_CONDITIONS: 72 h, five doses 0.01-100 µM
Unit µM implied. Number only.

Worked set:
Oc1ccc(/C=C/c2nc(-c3ccc(Br)cc3)cs2)cc1
2.86
CC(C)(C)c1ccc(/C=C/c2nc(-c3ccc(Cl)cc3)cs2)cc1
2.87
Oc1ccccc1/C=C/c1nc(-c2ccc(Br)cc2)cs1
4.15

Now take the following molecule into account.
Exam item: Quote IC50 reported for "COc1cccc(/C=C/c2nc(-c3ccc(F)cc3)cs2)c1" please.
Marked response: 4.99

* * *

QUANTITY: melting point

Look over these answered cases.
COc1ccccc1/C=C/c1nc(-c2ccc(Br)cc2)cs1
110 to 112 °C
Fc1ccc(/C=C/c2nc(-c3ccc(Br)cc3)cs2)cc1
176 to 178 °C

Please find the next compound below.
Exam item: Find the measured melting point of "COc1ccc(/C=C/c2nc(-c3ccc(F)cc3)cs2)cc1" and report it.
Marked response: 124 to 125 °C
